- Target system: PfHPPD-Evo41 (SEQ ID No 29) (Pseudomonas sp., UniProt P80064, A172V/A339Q/A53E/D148E/D45N/E105D/E287Q/E300V/E334P/F143Y/G286D/G335W/H150N/H254A/H63N/I158V/I187A/I249V/K338A/K92N/L18F/N24G/N280D/S245T/S257K/S301E/T205S/V65I)
- Sequence (P80064 1-354 with tags or gaps with the stated changes limits assumed): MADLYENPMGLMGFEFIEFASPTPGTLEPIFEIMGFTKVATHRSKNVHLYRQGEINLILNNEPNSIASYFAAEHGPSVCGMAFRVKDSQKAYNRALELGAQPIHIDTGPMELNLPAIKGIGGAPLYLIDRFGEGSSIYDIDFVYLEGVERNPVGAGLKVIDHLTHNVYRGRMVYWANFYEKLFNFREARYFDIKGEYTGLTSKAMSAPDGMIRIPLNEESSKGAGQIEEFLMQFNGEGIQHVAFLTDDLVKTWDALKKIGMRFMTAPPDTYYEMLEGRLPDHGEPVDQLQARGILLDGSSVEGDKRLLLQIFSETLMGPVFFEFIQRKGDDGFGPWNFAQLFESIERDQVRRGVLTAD
- Test details: biochemical
Readout type: pIC50
Keep in mind that pIC50 stands for -log10 of concentration in molar terms.

Which pIC50 is listed for CSc1c(C(F)(F)F)ccc(C(=O)Nc2nnnn2C)c1Cl ?
6.70
